Data credit: paper PMC10913735

test system: Plasmodium falciparum (NF54) proliferative erythrocytic stages; experiment: In vitro activity against Plasmodium falciparum erythrocytic stages; type: cell-based; settings: Plasmodium falciparum, NF54, read-out: P. falciparum IC50
RESULT TYPE: IC50 (nM)
Form entry: value (nM) — number only.

Problem: For the molecule CCN(CC)CCCC(C)Nc1ccnc2cc(Cl)ccc12 (stereo not shown) [Chloroquine, reference compound] , what IC50 is on record?
Solution: 4

---

test: Cytotoxicity in L6 cells; format: cell-based, rat; details: rat
RESULT TYPE: IC50 (µM)
Form entry: value (µM) — number only.

Problem: For the molecule C=C/C=C(\C)C(=O)CC[C@@H](C)/C=C/[C@@H]1CC[C@@H](C)C(=O)CC(=O)N[C@@H](C)CCC(=O)[C@@H](C)[C@H](O)[C@@H](C)/C=C(\C)C(=O)O1 [Angiolam B, angiolam B] , what IC50 is on record?
Solution: 27.8

Problem: For the molecule C=C/C=C(\C)[C@@H](O)CC[C@@H](C)/C=C/[C@@H]1CC[C@@H](C)C(=O)CC(=O)N[C@@H](C)CCC(=O)[C@@H](C)[C@H](O)[C@@H](CC)/C=C(\CC)C(=O)O1 [Angiolam F, angiolam F] , what IC50 is on record?
Solution: 49.9

Problem: For the molecule C=C/C=C(\C)[C@@H](O)CC[C@@H](C)/C=C/[C@@H]1CC[C@@H](C)C(=O)CC(=O)N[C@@H](C)CCC(=O)[C@@H](C)[C@H](O)[C@@H](C)/C=C(\C)C(=O)O1 [Angiolam A, angiolam A] , what IC50 is on record?
Solution: 94

Problem: For the molecule CC/C=C(\C)[C@@H](O)CC[C@@H](C)/C=C/[C@@H]1CC[C@@H](C)C(=O)CC(=O)N[C@@H](C)CCC(=O)[C@@H](C)[C@H](O)[C@@H](C)/C=C(\C)C(=O)O1 [Angiolam C, angiolam C] , what IC50 is on record?
Solution: 30.6

---

assay: Cytotoxicity in L6 cells; type: cell-based, rat; settings: L6 rat skeletal myoblasts; mean of at least three independent replicates ± SD; read-out: Cytotoxicity in L6 cells IC50
Kindly supply the reported pIC50 values for the records listed here.
Please treat pIC50 as minus the base-10 logarithm of the molar concentration.

Problem: For the compound C=C/C=C(\C)[C@@H](O)CC[C@@H](C)/C=C/[C@@H]1CC[C@@H](C)C(=O)CC(=O)N[C@@H](C)CCC(=O)[C@@H](C)[C@H](O)[C@@H](C)/C=C(\CC)C(=O)O1 [Angiolam D, angiolam D] , what pIC50 is on record?
Solution: 4.56

Problem: For the compound COc1cc([C@@H]2c3cc4c(cc3[C@H](O)[C@H]3COC(=O)[C@H]23)OCO4)cc(OC)c1OC [Podophyllotoxin, reference compound] , what pIC50 is on record?
Solution: 7.70

---

test system: Plasmodium falciparum (NF54) proliferative erythrocytic stages; experiment: In vitro activity against Plasmodium falciparum erythrocytic stages; format: cell-based; conditions: Plasmodium falciparum; NF54; mean of at least three independent replicates ± SD; read-out: P. falciparum IC50
RESULT TYPE: pIC50
Please treat pIC50 as minus the base-10 logarithm of the molar concentration.

Problem: Query the reported pIC50 for Plasmodium falciparum (NF54) proliferative erythrocytic stages; item: C=C/C=C(\C)[C@@H](O)CC[C@@H](C)/C=C/[C@@H]1CC[C@@H](C)C(=O)CC(=O)N[C@@H](C)CCC(=O)[C@@H](C)[C@H](O)[C@@H](CC)/C=C(\CC)C(=O)O1
Solution: 5.89

Problem: Query the reported pIC50 for Plasmodium falciparum (NF54) proliferative erythrocytic stages; item: CC/C=C(\C)[C@@H](O)CC[C@@H](C)/C=C/[C@@H]1CC[C@@H](C)C(=O)CC(=O)N[C@@H](C)CCC(=O)[C@@H](C)[C@H](O)[C@@H](C)/C=C(\C)C(=O)O1
Solution: 6.22

Problem: Query the reported pIC50 for Plasmodium falciparum (NF54) proliferative erythrocytic stages; item: C=C/C=C(\C)[C@@H](O)CC[C@@H](C)/C=C/[C@@H]1CC[C@@H](C)C(=O)CC(=O)N[C@@H](C)CCC(=O)[C@@H](C)[C@H](O)[C@@H](C)/C=C(\CC)C(=O)O1
Solution: 6.10

Problem: Query the reported pIC50 for Plasmodium falciparum (NF54) proliferative erythrocytic stages; item: C=C/C=C(\C)[C@@H](O)CC[C@@H](C)/C=C/[C@@H]1CC[C@@H](C)C(=O)CC(=O)N[C@@H](C)CCC(=O)[C@@H](C)[C@H](O)[C@@H](C)/C=C(\C)C(=O)O1
Solution: 5.57

Problem: Query the reported pIC50 for Plasmodium falciparum (NF54) proliferative erythrocytic stages; item: C=C/C=C(\C)C(=O)CC[C@@H](C)/C=C/[C@@H]1CC[C@@H](C)C(=O)CC(=O)N[C@@H](C)CCC(=O)[C@@H](C)[C@H](O)[C@@H](C)/C=C(\C)C(=O)O1
Solution: 6.52

---

system: Trypanosoma brucei rhodesiense (STIB 900) bloodstream forms; assay: In vitro activity against Trypanosoma brucei rhodesiense bloodstream forms; assay type: cell-based; details: Trypanosoma brucei; STIB 900; mean of at least three independent replicates ± SD; read-out: T. b. rhodesiense IC50
RESULT TYPE: IC50 (µM)
Form entry: value (µM) — number only.

Problem: For the molecule C=C/C=C(\C)[C@@H](O)CC[C@@H](C)/C=C/[C@@H]1CC[C@@H](C)C(=O)CC(=O)N[C@@H](C)CCC(=O)[C@@H](C)[C@H](O)[C@@H](CC)/C=C(\CC)C(=O)O1 [Angiolam F, angiolam F] , what IC50 is on record?
Solution: 25

Problem: For the molecule C=C/C=C(\C)[C@@H](O)CC[C@@H](C)/C=C/[C@@H]1CC[C@@H](C)C(=O)CC(=O)N[C@@H](C)CCC(=O)[C@@H](C)[C@H](O)[C@@H](C)/C=C(\CC)C(=O)O1 [Angiolam D, angiolam D] , what IC50 is on record?
Solution: 4.7

Problem: For the molecule C=C/C=C(\C)[C@@H](O)CC[C@@H](C)/C=C/[C@@H]1CC[C@@H](C)C(=O)CC(=O)N[C@@H](C)CCC(=O)[C@@H](C)[C@H](O)[C@@H](C)/C=C(\C)C(=O)O1 [Angiolam A, angiolam A] , what IC50 is on record?
Solution: 1.5

Problem: For the molecule CC/C=C(\C)[C@@H](O)CC[C@@H](C)/C=C/[C@@H]1CC[C@@H](C)C(=O)CC(=O)N[C@@H](C)CCC(=O)[C@@H](C)[C@H](O)[C@@H](C)/C=C(\C)C(=O)O1 [Angiolam C, angiolam C] , what IC50 is on record?
Solution: 4.5

Problem: For the molecule C=C/C=C(\C)C(=O)CC[C@@H](C)/C=C/[C@@H]1CC[C@@H](C)C(=O)CC(=O)N[C@@H](C)CCC(=O)[C@@H](C)[C@H](O)[C@@H](C)/C=C(\C)C(=O)O1 [Angiolam B, angiolam B] , what IC50 is on record?
Solution: 6.3
